target_or_test_system: alanyl aminopeptidases (APN) (Homo sapiens)
assay_text: Inhibition of alanyl aminopeptidase enzymatic activity, fluorogenic substrate (Ala)2-rhodamine 110
Type: biochemical
test_context: Table 3, unstarred values; read-out: IC50APN
Examples of compounds with documented log10 of IC50 follow.
endpoint: log10 of IC50 (log10 of the value in µM)

compound	log10 of IC50
CCOC(=O)c1nc(C)[nH]c1N [A3.012]	0.63
O=C(CCC(=O)Nc1cccc(Cl)c1)N/N=C/c1ccco1 [A3.206]	1.53
CC1CCN(C(=O)/C(=C\c2ccco2)NC(=O)c2ccc(Cl)cc2)CC1 [A3.022]	0.79
O=C(N/N=C/c1ccco1)c1cccc(NC(=O)c2ccc(F)cc2)c1 [A3.156]	1.41
CC(=O)N1CCOC1(C)c1ccc([N+](=O)[O-])cc1 (stereo not shown) [A3.200]	1.52
Cc1ccc(/C=C/C(=O)Nc2ccccc2C(N)=O)o1 [A3.245]	1.65
O=C(CNC(=O)c1ccccc1F)N/N=C/c1ccc([N+](=O)[O-])o1 [A3.280]	1.78
COc1ccc(CCCC(=O)N/N=C/c2ccco2)cc1 [A3.141]	1.37
Cc1ccc(/C=N/NC(=O)COc2cccc(Cl)c2)o1 [A3.284]	1.80
Cc1ccc(/C=N/NC(=O)c2cccc(NC(=O)c3ccccc3C)c2)o1 [A3.093]	1.28

----------
target_or_test_system: alanyl aminopeptidases (APN) (Homo sapiens, UniProt P15144)
Sequence (P15144 whole entry, species assumed): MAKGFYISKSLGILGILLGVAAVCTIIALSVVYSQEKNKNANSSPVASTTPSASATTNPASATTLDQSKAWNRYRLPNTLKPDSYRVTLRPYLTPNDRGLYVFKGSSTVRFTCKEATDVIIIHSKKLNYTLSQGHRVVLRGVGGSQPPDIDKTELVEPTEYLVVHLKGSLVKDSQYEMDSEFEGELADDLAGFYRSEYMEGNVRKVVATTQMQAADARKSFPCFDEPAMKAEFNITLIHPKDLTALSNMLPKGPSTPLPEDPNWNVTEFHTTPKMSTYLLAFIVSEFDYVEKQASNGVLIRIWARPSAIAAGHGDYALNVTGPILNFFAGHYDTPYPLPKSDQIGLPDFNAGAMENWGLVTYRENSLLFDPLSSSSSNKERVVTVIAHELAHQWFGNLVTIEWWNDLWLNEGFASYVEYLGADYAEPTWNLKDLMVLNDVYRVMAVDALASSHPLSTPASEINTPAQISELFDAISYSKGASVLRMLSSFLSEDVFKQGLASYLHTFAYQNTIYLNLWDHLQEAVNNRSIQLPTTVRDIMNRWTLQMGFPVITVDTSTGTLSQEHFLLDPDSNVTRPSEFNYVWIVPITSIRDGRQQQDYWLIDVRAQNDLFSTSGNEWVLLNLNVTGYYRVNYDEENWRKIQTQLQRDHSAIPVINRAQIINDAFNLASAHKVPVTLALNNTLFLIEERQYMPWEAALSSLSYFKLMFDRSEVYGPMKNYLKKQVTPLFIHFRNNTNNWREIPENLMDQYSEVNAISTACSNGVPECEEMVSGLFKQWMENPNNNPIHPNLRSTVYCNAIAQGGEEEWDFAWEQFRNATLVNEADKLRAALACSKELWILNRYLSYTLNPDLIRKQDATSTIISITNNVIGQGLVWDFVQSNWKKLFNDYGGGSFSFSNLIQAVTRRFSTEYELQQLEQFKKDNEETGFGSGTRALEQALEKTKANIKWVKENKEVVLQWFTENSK
assay_text: Inhibition of alanyl aminopeptidase enzymatic activity, fluorogenic substrate (Ala)2-rhodamine 110
Format: biochemical
test_context: Table 9, starred values = ID50; read-out: ID50 APN (values marked with *)

compound	IC50 (µM)
C#CCN1C(c2cnccn2)=NC(CC(C)C)C1C(=O)Nc1c(C)cccc1C (stereo not shown)	103
CC(C)Oc1ccc(/C=N/CCC2(c3ccccc3)CCOC(C)(C)C2)cc1 (stereo not shown)	197
CC(C)N1CCN(Cc2ccccc2[N+](=O)[O-])CC1	252
O=C(/C=C/c1ccco1)NCCCN1CCOCC1	208

----------
target_or_test_system: alanyl aminopeptidases (APN) (Homo sapiens)
assay_text: Inhibition of alanyl aminopeptidase enzymatic activity, fluorogenic substrate (Ala)2-rhodamine 110
Type: biochemical
test_context: Table 3, unstarred values; read-out: IC50APN
pIC50: −log10 of the molar value.
Examples of compounds with documented pIC50 follow.
endpoint: pIC50

compound	target_or_test_system	endpoint	observed_value
C/C(Cn1nnc([N+](=O)[O-])n1)=N/NC(=O)COc1ccccc1[N+](=O)[O-] [A3.010]	alanyl aminopeptidases (APN) (Homo sapiens)	pIC50	5.47
CC1=C(C#N)C(O)=NC(=O)/C1=C/c1ccc(-c2ccc(Cl)cc2Cl)o1 [A3.197]	alanyl aminopeptidases (APN) (Homo sapiens)	pIC50	4.49
COC(=O)c1ccccc1-c1ccc(/C=C2\C(=O)N(C)C(=O)C(C#N)=C2C)o1 [A3.172]	alanyl aminopeptidases (APN) (Homo sapiens)	pIC50	4.55
O=C1C(Cc2ccc(O)cc2)NC(=S)N1c1ccccc1 (centres unmarked) [A3.292]	alanyl aminopeptidases (APN) (Homo sapiens)	pIC50	4.18
CCCOC(=O)c1cc(-c2ccc(/C=C3\C(=O)N(CCCO)C(=O)C(C#N)=C3C)o2)ccc1Cl [A3.146]	alanyl aminopeptidases (APN) (Homo sapiens)	pIC50	4.62

----------
Examples of compounds with documented pIC50 follow.
target_or_test_system: alanyl aminopeptidases (APN) (Homo sapiens, UniProt P15144)
assay_text: Inhibition of alanyl aminopeptidase enzymatic activity, fluorogenic substrate (Ala)2-rhodamine 110
Assay type: biochemical
test_context: Table 3, unstarred values; read-out: IC50APN
pIC50: −log10 of the molar value.
endpoint: pIC50

COc1ccccc1NC(=O)/C=C\c1ccco1 4.25
CCN(CC)c1ccc(/C=N/NC(=O)CNC(=O)/C=C/c2ccco2)cc1 4.64
Cc1ccc(/C=N/NC(=O)c2cccc(I)c2)o1 4.52
Clc1ccc(-n2cc3c(-c4ccco4)nnc(-c4nc5ccccc5s4)c3n2)cc1 4.84
COc1cc(Br)ccc1OCC(=O)N/N=C/C=C/c1ccco1 4.96

----------
target_or_test_system: alanyl aminopeptidases (APN) (Homo sapiens)
assay_text: Inhibition of alanyl aminopeptidase enzymatic activity, fluorogenic substrate (Ala)2-rhodamine 110
Type: biochemical
test_context: Table 9, unstarred values; read-out: IC50APN
pIC50: −log10 of the molar value.
endpoint: pIC50

CN(C)CCCN1CCN(c2nc(N(C)CC(=O)O)c3ncn(Cc4ccc([N+](=O)[O-])cc4)c3n2)CC1 4.93
O=c1[nH]cc([N+](=O)[O-])cc1C(F)(F)F 4.52
Cc1ccc(/C=N/NC(=O)c2nnn(-c3nonc3N)c2CN2CCOCC2)o1 4.57
O=C(O)c1ccc(-n2c(/C=C/c3ccco3)nc3ccccc3c2=O)cc1 4.67

----------
target_or_test_system: alanyl aminopeptidases (APN) (Homo sapiens, UniProt P15144)
assay_text: Inhibition of alanyl aminopeptidase enzymatic activity, fluorogenic substrate (Ala)2-rhodamine 110
Format: biochemical
test_context: Table 4, unstarred values; read-out: IC50APN
Method: The inhibition characteristics measured are referred to as IC-50 values or ID50 values (the latter marked with “*”) for said enzyme. The enzymatic activity was determined by means of the fluorogenic substrate/product (Ala)2-rhodamine 110.
pIC50: −log10 of the molar value.
endpoint: pIC50

compound	observed_value
Nc1nonc1-n1nnc(C(=O)N/N=C/c2ccco2)c1-c1ccccc1 [A4.135]	4.33
O=C(N/N=C/c1cc([N+](=O)[O-])ccc1O)c1ccc(Cl)cc1 [A4.078]	4.59
O=C(N/N=C/c1cc(Br)cc(Br)c1OC(=O)c1ccccc1)/C(=C/c1ccc2c(c1)OCO2)NC(=O)c1ccccc1 [A4.052]	4.70
O=C(Cc1cccs1)N/N=C/C=C\c1ccco1 [A4.090]	4.55
O=C(N/N=C/c1ccco1)c1ccccc1O [A4.037]	4.80
O=C(COc1ccc2ccccc2c1)N/N=C/c1c(Br)cc(Br)c(O)c1Br [A4.059]	4.68
COc1ccc(OC)c(-c2cc(C(=O)N/N=C/c3ccco3)[nH]n2)c1 [A4.127]	4.36
COc1cc(/C=N/NC(=O)c2cc(-c3ccco3)n[nH]2)cc(OC)c1OC [A4.043]	4.77
COc1cc(Br)ccc1OCC(=O)N/N=C(C)/C=C/c1ccco1 [A4.116]	4.44
Cc1ccc(/C=N/NC(=O)c2ccccc2OCc2ccccc2)o1 [A4.045]	4.74
O=C(N/N=C/c1ccco1)c1ccc(O)cc1 [A4.042]	4.77
O=C(CNS(=O)(=O)c1ccc2c(c1)OCCO2)N/N=C/c1ccco1 [A4.148]	4.25
O=C(N/N=C/c1cc(Br)c(O)c(Br)c1O)/C(=C\c1ccc2c(c1)OCO2)NC(=O)c1ccccc1 [A4.073]	4.63
C/C(=N\NC(=O)CNC(=O)/C=C/c1ccco1)c1ccc2ccccc2c1 [A4.019]	4.92
CC(=O)Nc1ccc(C(=O)N/N=C/c2ccc(C)o2)cc1 [A4.095]	4.53
CC(C)C/C=N/NC(=O)c1ccc([N+](=O)[O-])cc1Cl [A4.035]	4.81
Cc1ccc(/C=N/NC(=O)COc2ccc(Cl)cc2)o1 [A4.038]	4.80
Cc1cc(I)ccc1NC(=O)CCC(=O)N/N=C/c1ccco1 [A4.048]	5.02
COc1cc(/C=N/NC(=O)/C(=C/c2cccs2)NC(=O)c2ccccc2)cc([N+](=O)[O-])c1O [A4.076]	4.60
Cc1ccc(OCC(=O)N/N=C/c2ccco2)cc1C [A4.117]	4.44
O=C(CC(=O)N/N=C/c1ccco1)N/N=C/c1ccco1 [A4.102]	4.49
Cc1ccc(/C=N/NC(=O)c2ccc(F)cc2)o1 [A4.108]	4.46
CCCOc1ccccc1-c1c[nH]c(C(=O)N/N=C/c2ccco2)c1 [A4.051]	4.71
C/C(=N\NC(=O)c1ccco1)c1ccc(C)o1 [A4.179]	3.82
O=C(CNC(=O)C(c1ccccc1)c1ccccc1)N/N=C/c1ccco1 [A4.034]	4.81
CCCCCC(=O)N/N=C/c1ccco1 [A4.085]	4.57
CC(C)c1cc(C(=O)N/N=C/c2ccco2)[nH]n1 [A4.040]	4.78
Cc1c(Cl)cccc1NC(=O)CCC(=O)N/N=C/c1ccco1 [A4.119]	4.44

----------
target_or_test_system: alanyl aminopeptidases (APN) (Homo sapiens)
assay_text: Inhibition of alanyl aminopeptidase enzymatic activity, fluorogenic substrate (Ala)2-rhodamine 110
Assay type: biochemical
test_context: Table 7; read-out: IC50APN
pIC50: −log10 of the molar value.
Examples of compounds with documented pIC50 follow.
endpoint: pIC50

compound	endpoint	observed_value
Cc1ccc(S(=O)(=O)CNC(=S)c2ccc(Cl)c(Cl)c2)cc1 [A7.010]	pIC50	4.74
O=C1C(Cc2c[nH]c3ccccc23)NC(=S)N1c1ccccc1 (stereo not drawn) [A7.006]	pIC50	4.91
Cc1cccc(C)c1NC(=S)NC(=O)c1cccs1 [A7.007]	pIC50	4.89
